testedTarget: KDR kinase (790-1356 AA) (Homo sapiens (Human), UniProt P35968)
Sequence (P35968 790-1356): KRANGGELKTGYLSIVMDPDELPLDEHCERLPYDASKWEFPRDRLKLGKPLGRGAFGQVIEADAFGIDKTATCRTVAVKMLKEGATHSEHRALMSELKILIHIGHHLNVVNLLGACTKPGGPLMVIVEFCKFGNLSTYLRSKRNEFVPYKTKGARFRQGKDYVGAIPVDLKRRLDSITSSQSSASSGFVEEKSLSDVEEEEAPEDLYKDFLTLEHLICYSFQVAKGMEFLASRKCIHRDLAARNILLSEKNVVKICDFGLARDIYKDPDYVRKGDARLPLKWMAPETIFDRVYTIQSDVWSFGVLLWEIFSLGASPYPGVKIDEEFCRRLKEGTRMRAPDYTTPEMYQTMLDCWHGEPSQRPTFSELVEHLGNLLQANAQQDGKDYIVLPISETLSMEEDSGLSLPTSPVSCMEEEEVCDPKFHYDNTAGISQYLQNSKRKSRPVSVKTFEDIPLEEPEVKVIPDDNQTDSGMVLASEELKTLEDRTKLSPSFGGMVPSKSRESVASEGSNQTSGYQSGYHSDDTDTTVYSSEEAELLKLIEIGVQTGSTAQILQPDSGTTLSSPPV
resultType: IC50 (nM)
Give bare numbers, in nM.

Check out these entries, answers already filled in.
>>> df
                                   molecule  resulttype  resultvalue
0  CN(C)C1CCN(c2cc(NC(=O)Nc3ccc(Oc4ccnc(NC(=O)C5CC5)c4)c(F)c3)cc(C(F)(F)F)c2)C1 (stereo not drawn) [Exe. 048]        IC50          7.3
1  N#Cc1ccc(NC(=O)Nc2ccc(Oc3ccnc(NC(=O)C4CC4)c3)c(F)c2)cc1C(F)(F)F [Exe. 062]        IC50         7.18

Enquiry: For the molecule shown here, N#Cc1ccc(NC(=O)Nc2ccc(Oc3ccnc(NC(=O)C4CC4)c3)cn2)cc1C(F)(F)F [Exe. 133] , give the reported IC50.
Return: 9.1

---

KDR kinase (790-1356 AA) (Homo sapiens (Human)): reported IC50 for various compounds.
One number for each entry, in nM.

In [3]: df
Out[3]:
                                smilesentry  resultvalue
0  CC(F)(F)c1cc(NC(=O)Nc2ccc(Oc3ccnc(NC(=O)C4CC4)c3)c(F)c2)ccc1Cl         14.7
1  O=C(Nc1cc(F)cc(C(F)(F)F)c1)Nc1ccc(Oc2ccnc(NC(=O)C3CC3)c2)c(F)c1         12.1
2  O=C(Nc1ccc(Oc2ccnc(NC(=O)C3CC3)c2)nc1)Nc1cc(N2CCC(F)CC2)cc(C(F)(F)F)c1         14.2
3  N#Cc1ccc(NC(=O)Nc2ccc(Oc3ccnc(NC(=O)C4CC4)c3)cc2F)cc1C(F)(F)F         14.6

--- query ---
Enquiry: For the compound shown here, N#Cc1ccc(NC(=O)Nc2ccc(Oc3ccnc(NC(=O)C4CC4)c3)cc2)cc1C(F)(F)F , give the reported IC50.
Return: 10
